experimental system: T1, DD(E) fragment of fibrin
T1 chain 1: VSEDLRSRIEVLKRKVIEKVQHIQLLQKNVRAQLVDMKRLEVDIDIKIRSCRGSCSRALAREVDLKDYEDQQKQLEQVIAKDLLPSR
T1 chain 2: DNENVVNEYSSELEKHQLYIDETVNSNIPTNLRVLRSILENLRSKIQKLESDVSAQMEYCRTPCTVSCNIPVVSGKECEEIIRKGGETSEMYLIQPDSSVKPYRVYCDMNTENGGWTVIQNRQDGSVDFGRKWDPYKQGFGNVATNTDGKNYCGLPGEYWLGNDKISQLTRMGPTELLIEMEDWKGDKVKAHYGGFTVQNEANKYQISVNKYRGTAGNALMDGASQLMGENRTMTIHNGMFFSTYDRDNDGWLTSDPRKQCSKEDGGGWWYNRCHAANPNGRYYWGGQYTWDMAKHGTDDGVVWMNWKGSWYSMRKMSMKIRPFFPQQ
T1 chain 3: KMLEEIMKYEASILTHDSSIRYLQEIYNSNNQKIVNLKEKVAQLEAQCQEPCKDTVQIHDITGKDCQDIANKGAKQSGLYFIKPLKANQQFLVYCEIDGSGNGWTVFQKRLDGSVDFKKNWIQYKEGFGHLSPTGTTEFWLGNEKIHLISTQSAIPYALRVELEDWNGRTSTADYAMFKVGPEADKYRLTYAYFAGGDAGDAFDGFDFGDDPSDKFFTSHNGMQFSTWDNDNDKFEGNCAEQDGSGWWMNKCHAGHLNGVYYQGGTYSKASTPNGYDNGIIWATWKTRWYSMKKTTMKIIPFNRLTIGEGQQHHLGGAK
T1 chain 4: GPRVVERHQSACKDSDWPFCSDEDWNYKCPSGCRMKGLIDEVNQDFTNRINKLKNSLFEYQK
T1 chain 5: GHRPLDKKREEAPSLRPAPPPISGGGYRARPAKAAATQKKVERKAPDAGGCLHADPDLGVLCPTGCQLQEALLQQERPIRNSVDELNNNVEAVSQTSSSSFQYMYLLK
T1 chain 6: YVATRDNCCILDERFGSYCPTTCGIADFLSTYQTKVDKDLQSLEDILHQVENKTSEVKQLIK
assay overview: affinity of optical contrast agent to fibrin DD(E) fragment
Positions of bridges follow the written chain, without caps; N, C: chain ends. Non-standard residues stand in square brackets, D forms with d. No end group written: not given here. Tyr(3-I) = N[C@@H](Cc1ccc(O)c(I)c1)C(=O)O; Hyp = O=C(O)[C@@H]1C[C@@H](O)CN1; Ahx = NCCCCCC(=O)O
metric name: Kd (nM)

fluorescein-[Ahx]GGFHC[Hyp][Tyr(3-I)]DLCHI (disulfide 6-11 (inferred)) [Structure E: Fluor-Ahx-G-G-F-H-C-Hyp-Y(3-I)-D-L-C-H-I]    90

(1) fluorescein-[Ahx]GFHC[Hyp][Tyr(3-I)]DLCHI (disulfide 5-10 (inferred)) [Structure C: Fluor-Ahx-G-F-H-C-Hyp-Y(3-I)-D-L-C-H-I]
(2) fluorescein-WFHCPYDLCHIL (disulfide 4-9 (inferred)) [Structure K: Fluor-W-F-H-C-P-Y-D-L-C-H-I-L]
Ask: Among 1 and 2 , which shows a numerically higher Kd result? // output: label of the selected item
Reply: 1
(1: 97 nM, 2: 60 nM)

Origin of values: patent US20070185311A1
